Please go through the items and note down their percent inhibition of viability.
System: IMC-1 (IL-2 20 ng/mL);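 note: normalised to DMSO-only wells as negative and benzethonium chloride as positive control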
Test: percent inhibition of viability; higher = more inhibition
Conditions: 72 h; 1 nM
Give just the numeric value; % need not be written.

// returns reported percent inhibition of viability for input COc1ccc(C[C@H](NC(=O)[C@H](C)NC(=O)CN2CCOCC2)C(=O)N[C@@H](Cc2ccccc2)C(=O)C2(C)CO2)cc1 (stereo in doubt) [ONX-0914] (max concentration tested 10000 nM)
2.14

Same for CC(C)Oc1ccc(C(=O)N[C@H](CNC(=O)CN(C)C)Cc2ccc(-c3cn4cccc([C@H](C)O)c4n3)cc2)cc1Cl (max concentration tested 10000 nM)
-5.65

Same for C#Cc1cccc(Nc2ncnc3cc4c(cc23)OCCOCCOCCO4)c1 [Icotinib] (max concentration tested 10000 nM)
-2.8

Same for C[C@@H]1C[C@H]2O[C@@H]2/C=C\C=C\C(=O)Cc2c(Cl)c(O)cc(O)c2C(=O)O1 [Radicicol] (max concentration tested 10000 nM)
-2.78

Same for CN(C)c1cc2c(cc1Sc1nc3c(N)nccc3n1CCNCC(C)(C)C)OCO2 [CUDC-305] (max concentration tested 10000 nM)
-5.61

Same for C=CC[C@@H]1/C=C(\C)C[C@H](C)C[C@H](OC)[C@H]2O[C@@](O)(C(=O)C(=O)N3CCCC[C@H]3C(=O)O[C@H](/C(C)=C/[C@@H]3CC[C@@H](O)[C@H](OC)C3)[C@H](C)[C@@H](O)CC1=O)[C@H](C)C[C@@H]2OC [Tacrolimus] (max concentration tested 10000 nM)
1.61

Same for O=c1[nH]c(=O)n([C@H]2C[C@H](O)[C@@H](CO)O2)cc1F [Floxuridine] (max concentration tested 10000 nM)
-2.91

Same for CC1(C)CCC(CN2CCN(c3ccc(C(=O)NS(=O)(=O)c4ccc(NCC5CCOCC5)c([N+](=O)[O-])c4)c(Oc4cnc5[nH]ccc5c4)c3)CC2)=C(c2ccc(Cl)cc2)C1 [Venetoclax] (max concentration tested 1000 nM)
2.12

Same for O=C(Nc1ccncc1)C(=O)c1cn(Cc2ccc(Cl)cc2)c2ccccc12 [Indibulin] (max concentration tested 10000 nM)
-3.14

Same for COc1cc([C@@H]2c3cc4c(cc3[C@@H](O[C@@H]3O[C@@H]5CO[C@@H](c6cccs6)O[C@H]5[C@H](O)[C@H]3O)[C@H]3COC(=O)[C@H]23)OCO4)cc(OC)c1O [Teniposide] (max concentration tested 10000 nM)
-1.21

====

System: KHYG-1 (IL-2 2.5 ng/mL)
Experiment: drug sensitivity score (DSS) (DSS units); higher = more sensitive; extreme values may be limits of the assay
Conditions: 72 h
Please go through the items and note down their drug sensitivity score.
Reply with just the number.

Query for KHYG-1 (IL-2 2.5 ng/mL): what drug sensitivity score does the record show for CC(=O)c1c(C)c2cnc(Nc3ccc(N4CCNCC4)cn3)nc2n(C2CCCC2)c1=O [Palbociclib] (max concentration tested 10000 nM) ?
16.8

Same for Oc1ncc(N(CCCl)CCCl)c(O)n1 [Uracil mustard] (max concentration tested 10000 nM)
0

Same for Cc1ccc2nc(CN(CCN(Cc3nc4ccc(C)cc4[nH]3)Cc3nc4ccc(C)cc4[nH]3)Cc3nc4ccc(C)cc4[nH]3)[nH]c2c1 (max concentration tested 50000 nM)
10.5
